Biological target: Bcl-2 protein (Recombinant Human Bcl-2 Protein) (Homo sapiens)
Construct: purchased Novus NBP2-34889
Sequence (P10415 whole entry): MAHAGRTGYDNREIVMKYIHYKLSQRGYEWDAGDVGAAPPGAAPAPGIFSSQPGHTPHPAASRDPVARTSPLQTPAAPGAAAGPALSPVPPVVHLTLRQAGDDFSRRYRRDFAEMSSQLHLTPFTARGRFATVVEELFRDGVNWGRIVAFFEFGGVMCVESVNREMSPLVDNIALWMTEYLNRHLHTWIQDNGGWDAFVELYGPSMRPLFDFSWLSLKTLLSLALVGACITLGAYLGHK
Test: Binding evaluation of mixture library compounds to Bcl-2 using AS-MS (affinity selection mass spectrometry)
Conditions: n = 2
Listing: ASMS ratio (%) of selected molecules
measured_quantity: ASMS ratio (%)

* CCOc1cccc(C#Cc2cncc(C(=O)N3CCN(c4ccc(C(=O)NS(=O)(=O)C(C)(C)C)nn4)CC3)c2)c1 [B2L009-01] | 0.0
* CCOc1cncc(-c2cc(CN3CCN(c4ccc(C(=O)NS(=O)(=O)CCC(F)(F)F)nn4)CC3)cc(OC(C)C)c2)c1 [B2N084-01] | 0.0
* CCOc1cncc(-c2ccccc2CN2CCN(c3ccc(C(=O)NS(=O)(=O)C(C)(C)C)nn3)CC2)c1 [B2L072-01] | 8.3
* CCOc1cccc(C#Cc2ccccc2C(=O)N2CCN(c3ccc(C(=O)NS(=O)(=O)C(C)(C)C)nn3)CC2)c1 [B2L007-01] | −1.0
* CCOc1cccc(-c2ccc(CN3CCN(c4ccc(C(=O)NS(=O)(=O)CCC(F)(F)F)nn4)CC3)c(OC)c2)c1 [B2N079-01] | 0.0
* CCOc1cccc(-c2ccc(CN3CCN(c4ccc(C(=O)NS(=O)(=O)c5ccc(NCCSc6ccccc6)c(C(F)(F)F)c5)nn4)CC3)cc2F)c1 [B2R077-01] | 0.0
* CCOc1cncc(-c2ccccc2CN2CCN(c3ccc(C(=O)NS(=O)(=O)c4ccc(NCCSc5ccccc5)c(C(F)(F)F)c4)cc3)CC2)c1 [B2R046-01] | 0.0
* CCOc1cccc(-c2cnn(-c3cc(C(=O)N4CCN(c5ccc(C(=O)NS(=O)(=O)C(C)(C)C)cc5)CC4)cc(C(F)(F)F)c3)c2)c1 [B2L043-01] | 0.0
* CCOc1cncc(-c2cc(CN3CCN(c4ccc(C(=O)NS(=O)(=O)c5ccc(NCCSc6ccccc6)c(C(F)(F)F)c5)cc4)CC3)cc(C(F)(F)F)c2)c1 [B2R062-01] | 0.0
* CCOc1cncc(-c2cc(C(=O)N3CCN(c4ccc(C(=O)NS(=O)(=O)C(C)(C)C)cc4)CC3)cc(C(C)(C)C)c2)c1 [B2L038-01] | 0.0
* CCOc1cccc(-c2ccc(CN3CCN(c4ccc(C(=O)NS(=O)(=O)C(C)(C)C)cc4)CC3)c(CC)c2)c1 [B2L049-01] | 0.0
* CCOc1cncc(-c2cc(OC)c(CN3CCN(c4ccc(C(=O)NS(=O)(=O)C(C)(C)C)cc4)CC3)c(OC)c2)c1 [B2L060-01] | 0.0
* CCOc1cccc(-c2ccccc2CCC(=O)N2CCN(c3ccc(C(=O)NS(=O)(=O)C(C)(C)C)cc3)CC2)c1 [B2L033-01] | 0.0
